- System: KB-3-1
- method: Cytotoxic Profiling of Annotated Libraries Using Quantitative High-Throughput Screening (AID 1296008); further: on the % scale 0 is the no-effect control and ±100 the full control effect
- assay_conditions: Five cell lines viability, CellTiter-Glo ATP luminescence, 48-72 h; stronger effect = lower value
Records with an inconclusive call do not appear.
property_label: max response (%)

molecule: CC/C=C/CC1=C(CCCCC(CCC(=O)O)OC(C)=O)CCC1=O (configuration not stated)
system_name: KB-3-1
property_label: max response
reading: -6.15
--
molecule: C=CC[C@]12C[C@@H](OC)C(=O)C(OC)=C1O[C@@H](c1cc(OC)c3c(c1)OCO3)[C@@H]2C
system_name: KB-3-1
property_label: max response
reading: -1.19
--
molecule: COc1ccc(-c2nc(-c3ccc(-c4cccc(Cl)c4)o3)[nH]c2-c2ccc(OC)cc2)cc1
system_name: KB-3-1
property_label: max response
reading: -16.3
--
molecule: O=C(CCCCN1CCOCC1)Nc1ccc(-c2cccnc2)cc1
system_name: KB-3-1
property_label: max response
reading: 3.7
--
molecule: COC(=O)N(C)c1c(N)nc(-c2nn(Cc3ccccc3F)c3ncccc23)nc1N
system_name: KB-3-1
property_label: max response
reading: 0.515
--
molecule: C=C(C(=O)OC)C1C(O)CC2(C)C(=O)CCC(O)(CO)C2C1O (configuration not stated)
system_name: KB-3-1
property_label: max response
reading: -0.746
--
molecule: N#Cc1ccc(-c2cnc3[nH]cc(NC(=O)c4cccnc4)c3c2)cc1
system_name: KB-3-1
property_label: max response
reading: -24.8
--
molecule: COc1cccc(C(=O)N2CCN(C(=O)COc3cccc(C)c3)CC2)c1OC
system_name: KB-3-1
property_label: max response
reading: -10.9
--
molecule: Cc1cn(C2C=CC(CO)O2)c(=O)[nH]c1=O (configuration not stated)
system_name: KB-3-1
property_label: max response
reading: 6.19
--
molecule: C[C@@H]1C(=O)O[C@H]2[C@H](O)C34[C@H]5C[C@@H](C(C)(C)C)C36[C@@H](OC(=O)[C@@H]6O)O[C@@]4(C(=O)O5)[C@@]12O (some centres not stated)
system_name: KB-3-1
property_label: max response
reading: -3.61
--
molecule: CC1CCCCN1S(=O)(=O)c1ccc(N2CCCC2=O)cc1 (configuration not stated)
system_name: KB-3-1
property_label: max response
reading: -2.83
--
molecule: OC[C@@]1(O)CO[C@@H](OC[C@H]2O[C@@H](Oc3c[nH]c4ccccc34)[C@H](O)[C@@H](O)[C@@H]2O)[C@@H]1O
system_name: KB-3-1
property_label: max response
reading: -0.625
--
molecule: CC1(C)CC[C@]2(C(=O)O)[C@H](O)C[C@]3(C)C(=CCC4[C@@]5(C)CC[C@H](O[C@@H]6O[C@H](CO[C@@H]7OC[C@H](O)[C@H](O)[C@H]7O[C@@H]7OC[C@@H](O)[C@H](O)[C@H]7O)[C@@H](O)[C@H](O)[C@H]6O[C@@H]6O[C@H](CO)[C@@H](O)[C@H](O)[C@H]6O)C(C)(C)C5CC[C@]43C)[C@@H]2C1 (some centres not stated)
system_name: KB-3-1
property_label: max response
reading: 4.84
--
molecule: COc1ccc([C@@H]2OC[C@H]3[C@@H]2CO[C@@H]3c2ccc(OC3OC(CO)C(O)C(O)C3O)c(OC)c2)cc1OC (some centres not stated)
system_name: KB-3-1
property_label: max response
reading: 8.67
--
molecule: COC1CC(O[C@H]2CC[C@@]3(C)C(CCC4C3[C@H](OC(C)=O)[C@@H](OC(=O)/C=C/c3ccccc3)[C@]3(C)C(C(C)=O)CC[C@]43O)C2)OC(C)C1OC1CC(OC)C(OC2CC(OC)C(OC3OC(C)C(OC4OC(CO)C(O)C(O)C4O)C(OC)C3O)C(C)O2)C(C)O1 (some centres not stated)
system_name: KB-3-1
property_label: max response
reading: -0.895
--
molecule: CC(C)C(N)C(=O)OCCOCn1cnc2c(=O)[nH]c(N)nc21 (configuration not stated)
system_name: KB-3-1
property_label: max response
reading: -4.91
--
molecule: CC1C(=O)CC2C3CCC(C(=O)O)C12CC3(C)CO (configuration not stated)
system_name: KB-3-1
property_label: max response
reading: 0.285
--
molecule: COc1ccc(CCO[C@@H]2O[C@H](CO[C@@H]3OC[C@H](O)[C@H](O)[C@H]3O)[C@@H](O)[C@H](O)[C@H]2O)cc1
system_name: KB-3-1
property_label: max response
reading: 4
--
molecule: COC(=O)C[C@H]1C(C)(C)[C@H](OC(=O)C(C)C)[C@@]2(O)C(=O)[C@]1(C)C1CC[C@]3(C)C(CC(=O)O[C@H]3c3ccoc3)[C@]13O[C@@H]32 (some centres not stated)
system_name: KB-3-1
property_label: max response
reading: 8.04
--
molecule: CC(C)C(C#N)O[C@@H]1O[C@H](CO[C@@H]2O[C@@H](C)[C@H](O)[C@@H](O)[C@H]2O)[C@@H](O)[C@H](O)[C@H]1O (some centres not stated)
system_name: KB-3-1
property_label: max response
reading: -1.19
--
molecule: CC(C)c1cc(C(=O)N2CC[C@@H](NC(=O)C3CC3)C2)n[nH]1
system_name: KB-3-1
property_label: max response
reading: 2.09
--
molecule: O=C(CCc1ccccc1)N1CCC(O)(Cn2cnc3cc(Cl)ccc3c2=O)CC1
system_name: KB-3-1
property_label: max response
reading: -17

Origin of values: PubChem BioAssay (NCATS)
